Ref: patent US20140193436A1

# System: H929 Myeloma cells
# experiment summary: In vitro cytotoxicity assessment (CellTiter-Glo cell viability), H929
# Type: cell-based, human
# experimental setup: H929 Myeloma; 72 hr with test compound; read-out: EC50
metric name: pEC50
Note on units: pEC50 is unitless, being -log10 of a concentration expressed in mol/L.

**Query** Which pEC50 value belongs to C[C@]12CC[C@H](OC3OC[C@H](N)[C@@H](O)[C@@H]3O)C=C1CCC1C2CC[C@]2(C)[C@@H](c3ccc(=O)oc3)CC[C@]12O (stereo partly shown) ?
**Result** 8.51
